# tested system: PfCRT^Dd2 (Plasmodium falciparum, UniProt Q9N623, A220S/I356T/K76T/M74I/N326S/N75E/Q271E/R371I)
# Sequence (Q9N623 whole entry A220S/I356T/K76T/M74I/N326S/N75E/Q271E/R371I): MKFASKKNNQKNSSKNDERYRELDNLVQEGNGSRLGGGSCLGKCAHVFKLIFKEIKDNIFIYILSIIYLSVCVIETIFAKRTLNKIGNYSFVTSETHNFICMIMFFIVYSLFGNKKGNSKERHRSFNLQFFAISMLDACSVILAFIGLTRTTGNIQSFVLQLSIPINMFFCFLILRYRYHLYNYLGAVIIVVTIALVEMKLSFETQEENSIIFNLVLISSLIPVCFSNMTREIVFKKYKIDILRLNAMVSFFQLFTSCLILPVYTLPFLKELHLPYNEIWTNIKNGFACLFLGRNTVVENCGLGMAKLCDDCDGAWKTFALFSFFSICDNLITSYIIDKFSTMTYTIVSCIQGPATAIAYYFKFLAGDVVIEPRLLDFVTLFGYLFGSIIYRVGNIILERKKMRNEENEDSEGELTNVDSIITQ
# method: [3H]CQ uptake into Xenopus oocytes, cis-inhibition by unlabelled solute
# Type: cell-based
# condition details: read-out: PfCRT-mediated [3H]CQ transport, cis-inhibition (% PfCRTDd2 control)
# Description: The orientation of PfCRT in the parasite’s DV membrane, and also in the oocyte plasma membrane, is such that its N- and C-termini extend into the cytosol. The oocytes were suspended in a reaction buffer adjusted to pH 5.5 to mimic the pH of the DV lumen[1],[2]. […] Unless specified otherwise, this is the direction in which substrate transport was measured in the oocyte assays. […]
# inhibition at 500 µM listing for each entry below
measured metric: inhibition at 500 µM (%)

smiles data: N[C@@H](Cc1ccc(O)cc1)C(=O)O
measured result: 94
--
smiles data: N[C@@H](Cc1ccccc1)C(=O)O
measured result: 94
--
smiles data: N[C@@H](CS)C(=O)O
measured result: 94
--
smiles data: CSCC[C@H](N)C(=O)O
measured result: 96
--
smiles data: NCCCC[C@H](N)C(=O)O
measured result: 93
--
smiles data: N[C@@H](CCC(=O)O)C(=O)O
measured result: 96
--
smiles data: C[C@@H](O)[C@H](N)C(=O)O
measured result: 95
--
smiles data: NC(=O)CC[C@H](N)C(=O)O
measured result: 98
--
smiles data: C[C@H](N)C(=O)O
measured result: 95
--
smiles data: CC(C)[C@H](N)C(=O)O
measured result: 98
--
smiles data: N=C(N)NCCC[C@H](N)C(=O)O
measured result: 99
--
smiles data: N[C@@H](Cc1c[nH]c2ccccc12)C(=O)O
measured result: 94
--
smiles data: N[C@@H](Cc1c[nH]cn1)C(=O)O
measured result: 96
--
smiles data: O=C(O)[C@@H]1CCCN1
measured result: 95
--
smiles data: N[C@@H](CO)C(=O)O
measured result: 99
--
smiles data: CC[C@H](C)[C@H](N)C(=O)O
measured result: 95
--
smiles data: CC(C)C[C@H](N)C(=O)O
measured result: 98
